protocol notes: Tmax in Sprague-Dawley rat at 1 mg/kg, sc after 24 hrs by LC-MS/MS analysis
Assay type: ADME, organism-based
Parameters: dose 1 mg/kg, route subcutaneous
conditions: in vivo
Where a SMILES comes first, the peptide text is derived from it. [ ]: non-standard residue; d: D form. Arg(Me) = CNC(=N)NCCC[C@H](N)C(=O)O; d4Pal = N[C@H](Cc1ccncc1)C(=O)O; azaGly = NNC(=O)O
measured parameter: Tmax (min)

>>> experimental_result("CNC(=N)NCCC[C@H](NC(=O)[C@H](CC(C)C)NC(=O)NNC(=O)[C@H](Cc1ccccc1)NC(=O)[C@@H](NC(=O)[C@H](CC(N)=O)NC(=O)[C@@H](Cc1c[nH]c2ccccc12)NC(=O)[C@@H](Cc1ccc(O)cc1)NC(C)=O)[C@@H](C)O)C(=O)N[C@@H](Cc1ccccc1)C(N)=O")
25.2
>>> experimental_result("CNC(=N)NCCC[C@H](NC(=O)[C@H](CC(C)C)NC(=O)NNC(=O)[C@H](Cc1ccccc1)NC(=O)[C@@H](NC(=O)[C@H](CC(N)=O)NC(=O)[C@@H](Cc1c[nH]c2ccccc12)NC(=O)[C@@H](Cc1ccc(O)cc1)NC(C)=O)[C@@H](C)O)C(=O)N[C@@H](Cc1c[nH]c2ccccc12)C(N)=O (Ac-[dY][dW]NTF[azaGly]L[Arg(Me)]W-NH2)")
11.4
>>> experimental_result("CNC(=N)NCCC[C@H](NC(=O)[C@H](CC(C)C)NC(=O)NNC(=O)[C@H](Cc1ccccc1)NC(=O)[C@@H](NC(=O)[C@H](CC(N)=O)NC(=O)[C@@H](Cc1ccncc1)NC(=O)[C@@H](Cc1ccc(O)cc1)NC(C)=O)[C@@H](C)O)C(=O)N[C@@H](Cc1c[nH]c2ccccc12)C(N)=O")
25.2
>>> experimental_result("CNC(=N)NCCC[C@H](NC(=O)[C@H](CC(C)C)NC(=O)NNC(=O)[C@H](Cc1ccccc1)NC(=O)[C@H](CO)NC(=O)[C@H](CC(N)=O)NC(=O)[C@@H](Cc1ccncc1)NC(=O)[C@H](N)Cc1ccc(O)cc1)C(=O)N[C@@H](Cc1ccccc1)C(N)=O [KISS1-305] (H-[dY][d4Pal]NSF[azaGly]L[Arg(Me)]F-NH2)")
8.4
>>> experimental_result("CNC(=N)NCCC[C@H](NC(=O)[C@H](CC(C)C)NC(=O)NNC(=O)[C@H](Cc1ccccc1)NC(=O)[C@@H](NC(=O)[C@H](CC(N)=O)NC(=O)[C@@H](Cc1c[nH]c2ccccc12)NC(=O)[C@H](N)Cc1ccc(O)cc1)[C@@H](C)O)C(=O)N[C@@H](Cc1c[nH]c2ccccc12)C(N)=O")
11.4
